Data origin: the DeepSol protein solubility set

- ASSAY DETAILS: soluble on expression in E. coli; label from the status in PepcDB or PDB records

>  <POLYMER SEQUENCE>
HHHHHHHHHHMLPTPYVKCDYDKVYEPAEDSFLILDCLEKEHDFLKQKFGNRLAIVCEIGSGSGIVTTFLMQNKIIPQENSIHLAVDINPWALEATLDTAKLNSCKSSFLEVIQADLNSSIRNNQVDVLIFNPPYVPAECVPDVPGSREEADQWLDLALLGGKDGMAITDKLLRQLEQILSPDGVAYILFCARNKPKEVIKRFVDTYKWNVKLIETRKAGWEVLSVYSFTR

>  <soluble on expression in E. coli>
not soluble

$$$$
>  <POLYMER SEQUENCE>
MGSDKIHHHHHHMKTLGERSKERRKIINLTQLQLSKKVGVSSVTISQWESGDTSPKGENLYKLAQALQCSPDWLMFGDSKNTKKPESNAEWAGGFDLWDNDSPLGEDEVEIPFYMDVELSAGEGIAEGVEYKGPKLRFAKSSLKRQGVNTDHAACVKVNGNSMEPVLPHGSTVGVDTSATEIVDGKMYAINHDGMMRVKMLYKLPGGGLRLRSYNTDEWPDEHINNEQLKNIKVIGKVFWYSVLL

>  <soluble on expression in E. coli>
not soluble

$$$$
>  <POLYMER SEQUENCE>
MAHHHHHHMESPRQEPLPQQPSELNTNAAAVLSTTTTESYVYTCRMCRHVLFMHHEILPHYPEPVGSGNKGFKYRGGGHASSQQQQGLHAAQEGGDVCTSYFLDPDISPWVAEESREVHQVSGGLDVMPDTIYCPNRKCNAKIGTQSWVGSQCSCGAWVTPAFKIHSRVVDKMPVAQ

>  <soluble on expression in E. coli>
not soluble

$$$$

* * *

- ASSAY DETAILS: soluble on expression in E. coli; label from the status in PepcDB or PDB records
PARAMETER MEASURED: soluble on expression in E. coli

These recorded examples may help you get a feel for the data.
>  <POLYMER SEQUENCE>
MAHHHHHHMAYRVQKTTPAVVDNGTSSDGDEAQRASHKTAKTSSPSPIPKPARRKAPIADSDSDDESATRPAAKTTSPKFALKKAAVDSDSSDEDEPVPKNSSAGKRPAPRAEEAPAQRAARTESEGAARRTPHHLNEDGTFRRFQRIDPAKVTFDADALRDNRPGREHLVLRQNQEMMRTKGKGFNKLKQKNKGKFYGAGVDLSVRAYQFPDSDDE

>  <soluble on expression in E. coli>
soluble

$$$$
>  <POLYMER SEQUENCE>
MGSDKIHHHHHHVAPPTKGGLAEAENKMENKMTEQQGYWIGEAGKPWGEAEKAKWRAAQQKKRSYEQEVLSKFSQVSESFEAQQYGELNYAEGQYPLYGFKSRDWDQEKPTILVTGGVHGYETSGVQGALRFLIAKAAEYSQDFNILVAPCVSPWGYETINRWNPEAIDPNRSFYADSPAQESRALMQWVASFNLPLMAHIDLHETTDTDNSEFRPALAARDAKVQTNWNIPDGFYLVGDSENPNDEMQAAIIAAVGKVTHIAPADEQGRLIGEPITQFGVINYATKALGLCSGFSDARYNTTTEVYPDSPLVDDENCIQAQVMAVSSALDYIRSQG

>  <soluble on expression in E. coli>
not soluble

$$$$
>  <POLYMER SEQUENCE>
MAISQFFEKIDRYYQKNLKEYEFSEEYSDISFNTFLYLRKINSLGNPTMSELAKAMEVSKPSASNMVSKMTEKGLVETGASPKDGRVCLLGLTDKGKKVIEIENGADMKFFEKIREILDEEELEVLERIFEKIAAGLEGEKHDR

>  <soluble on expression in E. coli>
not soluble

$$$$
>  <POLYMER SEQUENCE>
MVNLTRIYTRTGDKGTTALGDMSRVPKTDLRISAYADANEANAVIGTAIALGGLPEEVVKVLVRVQNDLFDVGADLSTPVVENPEYPPLRVEQFYVDKLEADCDRYLAEVEKLRSFILPGGTAGAALLHQACTVVRRAERSTWAALEAHGETMNPLTATYLNRLSDLLFILARVANKEVGDVLWVPGGERLEHHHHHH

>  <soluble on expression in E. coli>
soluble

$$$$
>  <POLYMER SEQUENCE>
MGSDKIHHHHHHMHKHADFFSYLSDHFQHTYWVPGNHEWYNSDMADRSGMLHEKIKDNVSLVNNAAVEQDGVQLIFSTLWSQISPAFAFQISQGMSDFHVIKYKGKPFSVEQFNRQHEESVSFIQKALQQKYAATTVVVSHHIPTFQHYPQQYKGSVLSEAFATELYDLIEAASPDYWIYGHHHSNVPDFTIGNTQLLTNQLGYVKCGEHAGFDRGKCLFRRGGH

>  <soluble on expression in E. coli>
not soluble

$$$$

Let us move to another entry and its soluble on expression in E. coli.
Input: Bench note: what soluble on expression in E. coli did "MKIHKTLTPWAAALLLASTAWPALAEVSTVRLAKQFGIGYLPLTLVEELDLLEKHAAASGHEITTEWLRFTGGSGMNEALLSGNLDLAAGGTGPLFTIWARTRENLKIKGVAALASMPLHLMTSNPEVKSLADFSQGDKIALPAVKTSIQAVTLQMASKQAFGPDKATAMDAFTVSMGHPDAQLALTGGQSEVTAHFGSPPFQNLEAKVEGIHKVLDSYDVLGGSHTFTVVWAADKFISENPEITKAFMAALEESMELISTNPEKAAEIWMAAERSPLSREEVVALIRDEQTVWTTTPERTLPYVEFLSESGLIKTSAEDWSEIFFDTMSGKEGS" show?
Output: not soluble
